Molecular target: TDP-43 RRM2 (mouse, UniProt Q921F2 192-265)
Sequence (Q921F2 192-265): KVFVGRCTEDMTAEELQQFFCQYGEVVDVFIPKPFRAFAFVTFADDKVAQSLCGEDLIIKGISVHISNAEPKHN
Assay: filter binding
measured-metric: Kd (nM)
One number for each entry, in nM.

UGUGUG (ssRNA) [(UG)3] has a reported Kd of 379
